study.target: MLKL (Homo sapiens, UniProt Q8NB16)
Sequence (Q8NB16 whole entry): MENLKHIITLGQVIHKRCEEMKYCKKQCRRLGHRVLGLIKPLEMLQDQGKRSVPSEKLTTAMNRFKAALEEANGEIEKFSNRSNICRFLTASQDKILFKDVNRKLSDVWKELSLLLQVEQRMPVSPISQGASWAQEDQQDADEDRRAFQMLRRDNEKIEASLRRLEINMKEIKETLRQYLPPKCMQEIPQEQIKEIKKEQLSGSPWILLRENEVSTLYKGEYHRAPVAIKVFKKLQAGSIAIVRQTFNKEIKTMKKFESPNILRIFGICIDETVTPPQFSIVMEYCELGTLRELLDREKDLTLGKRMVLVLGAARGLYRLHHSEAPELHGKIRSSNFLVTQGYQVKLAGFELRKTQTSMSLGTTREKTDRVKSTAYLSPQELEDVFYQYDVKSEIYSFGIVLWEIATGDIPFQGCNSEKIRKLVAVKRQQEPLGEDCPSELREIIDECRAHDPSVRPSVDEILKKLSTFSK
assay: MLKL degradation assay in HepG2 cell line (western blot)
Type: cell-based
Parameters: endogenous in cells; host or cells: HepG2 or HaCaT
condition.label: compound 1 μM; cell line not given

molecule: Nc1ncc(-c2cnn(C3CCN(C(=O)CCC4CCN(c5ccc6c(c5)C(=O)N(C5CCC(=O)NC5=O)C6=O)CC4)CC3)c2)nc1C(=O)O[C@@H](C(=O)Nc1ccc(F)cc1)c1ccccc1 (some centres unmarked)
Degradation assay (Degradation %) 1 μM: 74.57
//
molecule: Nc1ncc(-c2cnn(C3CCN(CCCN4CCN(C(=O)c5ccc6c(c5)CN(C5CCC(=O)NC5=O)C6=O)CC4)CC3)c2)nc1C(=O)O[C@@H](C(=O)Nc1ccc(F)cc1)c1ccccc1 (some centres unmarked)
Degradation assay (Degradation %) 1 μM: 54.30
//
molecule: Nc1ncc(-c2cnn(C3CCN(C(=O)CCC4CCN(C(=O)CNc5cccc6c5C(=O)N(C5CCC(=O)NC5=O)C6=O)CC4)CC3)c2)nc1C(=O)O[C@@H](C(=O)Nc1ccc(F)cc1)c1ccccc1 (some centres unmarked)
Degradation assay (Degradation %) 1 μM: 86.78
//
molecule: Nc1ncc(-c2cnn(C3CCN(C(=O)CCC4CCN(C(=O)CCc5ccc6c(c5)C(=O)N(C5CCC(=O)NC5=O)C6=O)CC4)CC3)c2)nc1C(=O)O[C@@H](C(=O)Nc1ccc(F)cc1)c1ccccc1 (some centres unmarked)
Degradation assay (Degradation %) 1 μM: 89.17
//
molecule: Nc1ncc(-c2cnn(C3CCN(CCOC4CCN(C(=O)CC5CCN(c6ccc7c(c6)C(=O)N(C6CCC(=O)NC6=O)C7=O)CC5)CC4)CC3)c2)nc1C(=O)O[C@@H](C(=O)Nc1ccc(F)cc1)c1ccccc1 (some centres unmarked)
Degradation assay (Degradation %) 1 μM: 78.14
